- study target: HLA-A*02:01 (Homo sapiens, UniProt P04439, D140Y/D185E/D98H/E176V/E277Q/G131W/G231S/I119V/I121R/I166T/I218V/L300P/L318F/N151K/N90K/P208A/P217A/Q86G/Q94H/R138H/R169H/T345S)
- protocol: MHC binding assay (UV-ligand exchange, ELISA of stabilized MHC complexes)
- stated conditions: MHC class I binding score; binding to HLA-A*02:01 ranged by peptide exchange yield (UV-ligand exchange, ELISA)
- Text: Candidate peptides for T cell based therapies according to the present invention were further tested for their MHC binding capacity (affinity). The individual peptide-MHC complexes were produced by UV-ligand exchange, where a UV-sensitive peptide is cleaved upon UV-irradiation, and exchanged with the peptide of interest as analyzed. Only peptide candidates that can effectively bind and stabilize the peptide-receptive MHC molecules prevent dissociation of the MHC complexes. […]
experimental endpoint: Peptide exchange

Solved entries (count: 8):
>>> df
                                  substance  experimental_endpoint              observed
0  152 (ILFEDIFDV; listed as Homo sapiens) [compound 152]       Peptide exchange    ″+++″ (≥50% = +++)
1  469 (YLASDEITTV; listed as Homo sapiens) [compound 469]       Peptide exchange    ″+++″ (≥50% = +++)
2  340 (ALLSMTFPL; listed as Homo sapiens) [compound 340]       Peptide exchange  ″++++″ (≥75% = ++++)
3  603 (FLIEPEHVNTV; listed as Homo sapiens) [compound 603]       Peptide exchange      ″++″ (≥20% = ++)
4  79 (SLFIGEKAVLL; listed as Homo sapiens) [compound 79]       Peptide exchange    ″+++″ (≥50% = +++)
5  18 (YLVAKLVEV; listed as Homo sapiens) [compound 18]       Peptide exchange      ″++″ (≥20% = ++)
6  462 (KLAKQPETV; listed as Homo sapiens) [compound 462]       Peptide exchange    ″+++″ (≥50% = +++)
7  528 (SVAEGRALMSV; listed as Homo sapiens) [compound 528]       Peptide exchange    ″+++″ (≥50% = +++)

Kindly consider the entry below.
Which Peptide exchange is reported for this substance? 342 (HIYDKVMTV; listed as Homo sapiens) [compound 342] ″+++″ (≥50% = +++)
